Attribution: PubChem BioAssay (NCI)

Examples of compounds with documented growth follow.
- System: EKVX NSCLC
- Assay Text: NCI-60 one-dose screen, 48 h (100 = growth as untreated, 0 = no growth, -100 = all killed)
- Assay Conditions: 10 µM unless noted
This is part of a sample that, as a whole, favours compounds with a hit. Of some 83,000 tested, about 20% had one in any assay.
Observable: growth (%)

Compound	Target	Units Label	Observed Measurement
COc1ccc2cc(C(C)C(=O)Nc3ccc(-c4n[nH]c(=S)n4C4CCCCC4)cc3)ccc2c1 (centres undefined)	EKVX NSCLC	%	70.5
O=C(/C=C/c1sc(Cl)nc1Cl)c1ccccc1	EKVX NSCLC	%	101
CN1CCN(c2ccc(-c3ccc4ncc(C#N)c(Nc5ccc(F)c(Cl)c5)c4c3)cn2)CC1	EKVX NSCLC	%	48.4
CCOC(=O)c1cnn2c3ccccc3n(S(=O)(=O)c3ccc(OC)cc3)c12	EKVX NSCLC	%	38.4
CN1CCN(c2ccc(-c3ccc4ncc(C#N)c(Nc5ccc(F)c(Cl)c5)c4c3)cc2)CC1	EKVX NSCLC	%	54.4
CC(=O)N1N=C(c2ccc(Nc3nc(Nc4ccc(F)cc4)nc(Nc4ccc(Cl)cc4)n3)cc2)CC1c1ccc(Cl)cc1 (centres undefined)	EKVX NSCLC	%	87.3
O=C(/C=C/c1cccc2ccccc12)c1ccc(NC(=O)c2ccccc2CN2C(=O)c3ccccc3C2=O)cc1	EKVX NSCLC	%	81.4
Cc1cccc2c3c(sc12)C(c1ccc(Cl)cc1)C(C#N)=C(N)O3 (centres undefined)	EKVX NSCLC	%	44.5
CCCCCCCCCCCCCCCCCC1OCC(COC(=O)O[C@]2(CC)C(=O)OCc3c2cc2n(c3=O)Cc3cc4ccccc4nc3-2)O1 (some centres undefined)	EKVX NSCLC	%	92.4
Oc1ccc(C#CCOc2ccccc2)cc1CNCCN(Cc1ccccn1)Cc1ccccn1	EKVX NSCLC	%	16
N#Cc1c(-c2ccc(Cl)cc2)nc2c(c(-c3ccccc3)nn2-c2ccccc2)c1-c1ccc(O)cc1	EKVX NSCLC	%	67.8
CCN(CC)S(=O)(=O)c1ccc(NC(=O)CSc2nnc(C)n2-c2ccccc2)cc1	EKVX NSCLC	%	107
Cc1cc(-c2cc(C)c(N)cc2C)c(C)cc1N	EKVX NSCLC	%	115
CCCCCCCCCCCCCCCCCCOc1ccc(CC(=O)OCC[N+]2(C)CCCCC2)cc1	EKVX NSCLC	%	97.9
CNc1ccc(Nc2cccc(C)c2)c2c1C(=O)c1ccccc1C2=O	EKVX NSCLC	%	164
c1ccc(CO[C@H]2CO[C@H]3[C@@H]2OC[C@@H]3Oc2ccc(Nc3ncnc4ccsc34)cc2)cc1	EKVX NSCLC	%	62.3
Cc1ccc(S(=O)(=O)Oc2ccc(NC(=O)c3ccc(Cl)cc3)cc2)cc1	EKVX NSCLC	%	91.3
O=C(COc1ccc(/C=C2\Cc3ccc(Cl)cc3C2=O)cc1)Nc1nc2ccccc2s1	EKVX NSCLC	%	117
CC(C)c1cc(C(C)C)c(S(=O)(=O)Oc2ccc(NC(=O)c3ccc(Cl)cc3)cc2)c(C(C)C)c1	EKVX NSCLC	%	19.4

====

- Tested on: U251 CNS
- Assay Text: NCI-60 one-dose screen, 48 h
- Assay Conditions: 10 µM unless noted
The panel holds about 83,000 compounds, 20% with a hit somewhere; the sample as a whole holds those more often. Calls of active or inactive are those of the source. How the source made its calls: active means growth percent below 10; inactive means the rest.
Outcomes: active, inactive

Molecule	Target	Class Label
NCCCNc1nc2ccccc2c2c(=O)c3cc(F)cc(F)c3sc12	U251 CNS	active
Cc1c(C(=O)NCCN2CCOCC2)cn2ncnc(Oc3ccc(NC(=O)Nc4ccc(Cl)c(C(F)(F)F)c4)cc3)c12	U251 CNS	inactive
Cc1ncc(C(=O)Nc2ccc(CN3CCN(C)CC3)c(C(F)(F)F)c2)cc1C#Cc1ccc(N)nc1	U251 CNS	inactive
Cc1cccc(NC2=C(Cl)C(=O)c3nc(C)ccc3C2=O)c1	U251 CNS	inactive
O=c1c2cc(F)ccc2sc2c(NCCCNCCO)nc3ccccc3c12	U251 CNS	active
COc1ccc(/C=N/Nc2cc(=O)[nH]c3ccc(Cl)cc23)cc1	U251 CNS	inactive
COc1cc2cc(Oc3ccc(NC(=O)Nc4cc(C(F)(F)F)cc(C(F)(F)F)c4)cc3)c(C)nc2cc1OCCN1CCOCC1	U251 CNS	active
CCN1C(=O)N(CC)C2Nn3c(s/c(=C4\C(=O)N(CC(C)C)c5ccccc54)c3=O)=NC21 (centres undefined)	U251 CNS	inactive
Clc1ccc2c(c1)N(CCCN1CCCC1)c1ccccc1S2	U251 CNS	inactive

====

- Tested on: HS 578T breast
- Assay Text: NCI-60 one-dose screen, 48 h (100 = growth as untreated, 0 = no growth, -100 = all killed)
- Assay Conditions: 10 µM unless noted
About 83,000 compounds went through this panel and 20% of them were active in at least one assay; those are over-represented in the sample as a whole.
Observable: growth (%)

Smiles Repr	Observable	Observed Measurement
Cc1ccccc1C(=O)NN	growth	106
Cc1nn(-c2ccccc2)c2c1N=c1s/c(=C\c3ccc(C(F)(F)F)cc3)c(=O)n1CN2	growth	96.9
N#Cc1ccc(NC(=O)c2sc3nc4c(cc3c2N)C(=O)CCC4)cc1	growth	111
Cc1nn(-c2ccccc2)c(-n2ccnc2)c1/C=N/Nc1nc(-c2ccc(Cl)c(Cl)c2)cs1	growth	42
COc1ccc2sc3c(NCCCNCCO)nc4ccccc4c3c(=O)c2c1	growth	53
CCOC(=O)c1cn2ncnc(Oc3ccc(NC(=O)NCCN4CCN(C)CC4)c(Cl)c3)c2c1C	growth	74.3
CCN(CC)CCNC(=O)c1cn2ncnc(Oc3ccc(NC(=O)Nc4ccc(Cl)c(C(F)(F)F)c4)cc3)c2c1C	growth	-44.4
CCCCCCCCCCCCCCCCCCOc1ccc(CC(=O)OCC[N+](C)(C)C)cc1	growth	99.6
CC[C@H](C)C(=O)O[C@H]1CCC=C2C=C[C@H](C)[C@H](CC[C@@H]3CC=CC(=O)O3)[C@H]21	growth	109

====

- System: DU-145 prostate
- Assay Text: NCI-60 one-dose screen, 48 h
- Assay Conditions: 10 µM unless noted
- Method: Cells are grown in 96 well plates and exposed to the test compound for 48 hours. Compounds are tested at a single concentration, which is 10^-5 M for most compounds. The reported endpoint is percent growth (GI% or GIPRCNT), where numbers from 0 - 100% represent growth inhibition, and numbers from -100% - 0 represent cell death. For example, a value of 40 represents 60% growth inhibition. A value of 0 means no net growth occurred over the course of the experiment. […]
The panel holds about 83,000 compounds, 20% with a hit somewhere; the sample as a whole holds those more often. Calls of active or inactive are those of the source. How the source made its calls: active means growth percent below 10; inactive means the rest.
Possible outcomes: TRUE = active, FALSE = inactive

Compound	Class Label
CCCCn1c(=O)c(-c2cc(-c3ccc(Cl)cc3)nc(-c3ccc(Cl)cc3)c2)cc2cc(C)ccc21	FALSE
O=C(Nn1c(NCC(=O)N2c3ccccc3Sc3ccccc32)nnc1-c1ccc(O)cc1)c1ccccc1	FALSE
CN1CCN(c2ccc(-c3ccc4ncc(C#N)c(Nc5ccc(F)c(Cl)c5)c4c3)cn2)CC1	FALSE
COc1ccc(C(=S)N2CCN(c3cccc(C)c3)CC2)cc1OC	FALSE
COc1ccc(-c2nnc(COc3ccc(Cl)cc3Cl)o2)cc1OC	FALSE
CN1CCN(c2ccc(-c3ccc4ncc(C#N)c(Nc5ccc(F)c(Cl)c5)c4c3)cc2)CC1	FALSE
NCCCNc1nc2ccccc2c2c(=O)c3cccc(F)c3sc12	FALSE
COc1cccc(-c2nn(-c3ccccc3)cc2-c2ccnc(N3CCOCC3)c2)c1	FALSE
CCc1cccc2c3c(sc12)C(c1ccc(F)cc1)C(C#N)=C(N)O3 (stereo unspecified)	FALSE
Cc1nc2ccccc2c(/C=C/c2ccc(Cl)cc2)c1C(=O)/C=C/c1cccs1	FALSE
O=c1c2cc(F)ccc2sc2c(NCCCNCCO)nc3ccc(F)cc3c12	FALSE
O=S(=O)(NCCCNc1cc(-c2c(-c3cccc(O)c3)nc3sccn23)ccn1)c1cccc2ccccc12	FALSE
CCc1ccc(Oc2c(-c3ccc(OCc4ccc(Cl)cc4)cc3O)n[nH]c2C(F)(F)F)cc1	FALSE
Cn1cc(-c2cc3ncnc(Nc4ccc(CC(=O)Nc5cc(C(C)(C)C)on5)cc4)c3s2)cn1	FALSE
C#Cc1cccc(NC(=O)Nc2ccccc2NC(=O)CCl)c1	TRUE
Cn1cc(C(=O)c2nc(-c3cn(C)c4ccc(F)cc34)no2)c2cc(F)ccc21	FALSE
Cc1ccc2sc3c(NCCCN)nc4ccccc4c3c(=O)c2c1	FALSE
O=CN1N=C(c2ccc(Nc3ccnc4cc(Cl)ccc34)cc2)CC1c1ccccc1 (stereo unspecified)	FALSE
N#C/C(=C\c1cccc2cnccc12)n1nnc2cccc(F)c21	TRUE
Cn1cc(-c2ccc3cc(-c4ccc(CC(=O)Nc5cc(C(C)(C)C)nn5C)cc4)cnc3c2)cn1	FALSE
Nc1nc(Cl)cc(=O)n1Cc1ccccc1	FALSE
CCOC(=O)C1=C(N)Oc2c(sc3c(CC)cccc23)C1c1ccc(F)cc1 (stereo unspecified)	FALSE
COc1cccc2c(=O)c3c(sc12)c(N1CCNCC1)nc1ccccc13	FALSE
COc1ccc(C2NC(=O)C(C#N)c3c2sc2c(F)cccc32)c(OC)c1 (stereo unspecified)	FALSE
O=C(N/N=C/[C@H](O)[C@@H](O)[C@@H](O)[C@H](O)CO)c1ccc(NC(=O)c2cccnc2)cc1	FALSE
CNc1ccc(Nc2cccc(C)c2)c2c1C(=O)c1ccccc1C2=O	FALSE
Cc1ccccc1C(=O)NN	FALSE
COc1cccc(OC)c1C(=O)N[C@@H]1C(=O)N2[C@@H]1SC(C)(C)[C@@H]2C(=O)O	FALSE
COc1ccc(C(=O)N=Nc2c(O)n(C)c3ccccc23)cc1	FALSE
Cc1ccc(C(=O)N/N=C/c2cccc(Oc3ccccc3)c2)cn1	FALSE
S=c1nc(-c2ccccc2)oc(=NC2CCCCC2)n1C1CCCCC1	FALSE
O=C(O)c1cn(C2CC2)c2cc(N3CCN(C(=O)Nc4nc(-c5ccc(Cl)cc5)cs4)CC3)c(F)cc2c1=O	FALSE
CCN(CC)Cc1cc(Nc2c3ccc(Cl)cc3nc3ccc(OC)cc23)ccc1O	FALSE
COc1ccc(C(=O)C(C)C)c2ccccc12	FALSE
Oc1c(I)cc(I)cc1CNCCCN(Cc1ccccn1)Cc1ccccn1	TRUE
O=C(CCN1C(=O)/C(=C/c2ccc(O)cc2)SC1=S)Nc1ccc(Cl)cc1	FALSE
Cn1cc(-c2cc3ncnc(Nc4ccc(CC(=O)Nc5cc(C(C)(C)C)nn5C)cc4)c3s2)cn1	FALSE
CCCCCCn1c(-c2ccc(C(=O)O/N=C(\N)c3ccc4ccccc4c3)cc2)nc(-c2ccccc2)c1-c1ccccc1	FALSE
COc1cc(Nc2nc(NCCN)nc3cc[nH]c(=O)c23)cc(OC)c1	FALSE
COc1ccc(-c2[nH]ncc2-c2cc3c(c(OC)c2)OCC(=O)N3)cc1	FALSE
Cc1ccc(C(CC(=O)O)c2c(C)[nH][nH]c2=O)cc1 (stereo unspecified)	FALSE
